system: gastric acid secretion; assay: Gastric acid secretion inhibition activity (pylorus-ligated, histamine-stimulated rats); format: in vivo, Sprague-Dawley (SD) male rats; settings: Rattus norvegicus; 30 mg/kg oral; pylorus ligated 3 hours later; histamine hydrochloride 30 mg/kg s.c.; total acidity over 3 hours; read-out: Acid secretion inhibition rate (%)
readout kind: inhibition in vivo at 30 mg/kg (%)

| compound | unit string | measured number |
| --- | --- | --- |
| CCOCCOC(C#Cc1nc2ccccc2nc1C#CC(CC)OCCOCC)CC (centres unmarked) [Example 117] | % | 35 |
| CC[C@H](C#Cc1nc2ccccc2nc1C#C[C@@H](CC)OCCOC)OCCOC [Example 19] | % | 28 |
| CCCOCC#Cc1nc(C(=O)O)c(C(=O)O)nc1C#CCOCCC [Example 5] | % | 61 |
| CCCC#Cc1nc(C#N)c(C#N)nc1C#CCCOC [Example 77] | % | 55 |
| CCC#Cc1nc(C(=O)OC)c(C(=O)OC)nc1C#CC(C)OC (centres unmarked) [Example 62] | % | 69 |

----------
molecular target: H^+,K^+ adenosine triphosphatase (Sus scrofa); construct: hog stomach was homogenized and subjected to ultracentrifugation to obtain a microsome fraction; from tissue; host or cells: hog stomach, microsome fraction (discontinuous Ficoll gradient); test: H+,K+ adenosine triphosphatase inhibition (proton pump inhibition); type: biochemical, hog
Sequence (P19156 2-1034 limits assumed): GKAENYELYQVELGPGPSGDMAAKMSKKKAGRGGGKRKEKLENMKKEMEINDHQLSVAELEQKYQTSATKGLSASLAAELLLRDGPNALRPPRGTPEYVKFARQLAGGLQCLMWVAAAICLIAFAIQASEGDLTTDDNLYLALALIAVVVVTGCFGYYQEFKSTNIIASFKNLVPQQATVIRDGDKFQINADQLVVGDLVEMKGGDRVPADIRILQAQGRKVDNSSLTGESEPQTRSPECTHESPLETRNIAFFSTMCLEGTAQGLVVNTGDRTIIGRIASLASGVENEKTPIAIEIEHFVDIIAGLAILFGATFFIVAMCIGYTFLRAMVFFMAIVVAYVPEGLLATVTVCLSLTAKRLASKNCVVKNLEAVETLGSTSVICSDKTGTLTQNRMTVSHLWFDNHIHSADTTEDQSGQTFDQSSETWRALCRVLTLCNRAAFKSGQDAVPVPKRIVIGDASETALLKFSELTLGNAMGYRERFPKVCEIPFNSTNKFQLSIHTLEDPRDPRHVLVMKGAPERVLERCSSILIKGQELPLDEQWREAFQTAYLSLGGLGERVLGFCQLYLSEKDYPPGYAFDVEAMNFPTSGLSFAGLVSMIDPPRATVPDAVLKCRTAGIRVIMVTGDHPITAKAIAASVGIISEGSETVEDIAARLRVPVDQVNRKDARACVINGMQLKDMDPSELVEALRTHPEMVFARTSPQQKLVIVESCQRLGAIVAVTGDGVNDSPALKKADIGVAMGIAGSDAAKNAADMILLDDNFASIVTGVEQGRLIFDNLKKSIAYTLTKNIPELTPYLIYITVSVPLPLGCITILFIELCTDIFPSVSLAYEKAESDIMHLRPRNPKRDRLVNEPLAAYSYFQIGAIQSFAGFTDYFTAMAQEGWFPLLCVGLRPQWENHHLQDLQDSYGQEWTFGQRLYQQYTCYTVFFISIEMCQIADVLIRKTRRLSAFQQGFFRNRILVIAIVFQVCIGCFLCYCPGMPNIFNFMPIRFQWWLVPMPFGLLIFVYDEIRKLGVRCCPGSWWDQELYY
Sequence (P18434 whole entry partner): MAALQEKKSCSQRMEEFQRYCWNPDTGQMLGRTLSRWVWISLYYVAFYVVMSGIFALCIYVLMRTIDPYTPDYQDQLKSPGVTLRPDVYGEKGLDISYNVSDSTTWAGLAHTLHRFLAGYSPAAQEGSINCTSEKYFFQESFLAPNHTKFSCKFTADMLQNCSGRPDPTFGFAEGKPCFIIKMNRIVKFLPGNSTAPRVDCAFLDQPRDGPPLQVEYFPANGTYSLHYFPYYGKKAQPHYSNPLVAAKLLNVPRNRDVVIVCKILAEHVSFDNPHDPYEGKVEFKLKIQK
This listing pairs compounds with measured IC50.

| compound | IC50 [µM] |
| --- | --- |
| COCCOCC#Cc1nc2ccccc2nc1C(C)(C)C [Example 30] | 60.3 |
| CCCCC#Cc1nc(C#N)c(C#N)nc1C(F)(F)F [Example 102] | 3.95 |
| CCCC#Cc1nc(C#N)c(C#N)nc1C#CCOC [Example 81] | 1.51 |
| CCCCC#Cc1nc(C#N)c(C#N)nc1C(=O)OCC [Example 101] | 5.31 |

----------
assay: Acute toxicity test; settings: mouse, in vivo; oral, mice, one week observation
This listing pairs compounds with measured LD50 at 168 h.

| compound | LD50 at 168 h |
| --- | --- |
| COCCCC#Cc1nc(C(=O)OC)c(C(=O)OC)nc1C#CCCCOC | > 1000 mg/kg |
| CCOCCOC(C#Cc1nc2ccccc2nc1C#CC(CC)OCCOCC)CC (stereo not drawn) | > 1000 mg/kg |
| CCC(C#Cc1nc2ccccc2nc1C#CC(CC)OCCOC)OCCOC (stereo not drawn) | > 1000 mg/kg |
| CCCC#Cc1nc(C#N)c(C#N)nc1C#CCOC | > 1000 mg/kg |
| COCCC#Cc1nc2ccccc2nc1C#CCCOC | > 1000 mg/kg |
| CCOCC#Cc1nc2ccccc2nc1C#CCOCC | > 1000 mg/kg |

----------
system: Pylorus ligation ulcer; test: Pylorus ligation ulcer; type: in vivo, Wistar male rats; settings: Rattus norvegicus; oral, 14 hours after pylorus ligation; read-out: Antiulcer activity, Pylorus ligation ulcer, ED50 value
# label = condition met if ED50 < 30 mg/kg else condition not met

| compound | target system | category |
| --- | --- | --- |
| CCOC(C)C#Cc1nc2ccccc2nc1C#CC(C)OCC (centres unmarked) [Example 10, 2,3-bis(3-ethoxy-1-butynyl)quinoxaline] | Pylorus ligation ulcer | condition met |
| CCC(C#Cc1nc2ccccc2nc1C#CC(CC)OC)OC (centres unmarked) [Example 11, 2,3-bis(3-methoxy-1-pentynyl)quinoxaline] | Pylorus ligation ulcer | condition not met |
| COCCCC#Cc1nc(C(=O)OC)c(C(=O)OC)nc1C#CCCCOC [Example 2] | Pylorus ligation ulcer | condition not met |
| COCCOC(C)C#Cc1nc(C(=O)OC)c(C(=O)OC)nc1C#CC(C)OCCOC (centres unmarked) [Example 56] | Pylorus ligation ulcer | condition met |

----------
This listing pairs compounds with measured ED50.
test system: Pylorus ligation ulcer; assay: Pylorus ligation ulcer; type: in vivo, Wistar male rats; conditions: Rattus norvegicus; oral, 14 hours after pylorus ligation; read-out: Antiulcer activity, Pylorus ligation ulcer, ED50 value
readout kind: ED50 (mg/kg)

| compound | target system | measured number |
| --- | --- | --- |
| CCCOCC#Cc1nc(C(=O)OC)c(C(=O)OC)nc1C#CCOCCC | Pylorus ligation ulcer | 28 |
| COCC#Cc1nc(C#N)c(C#N)nc1C#CCOC | Pylorus ligation ulcer | 1.2 |
| CCOCCOC(C#Cc1nc2ccccc2nc1C#CC(CC)OCCOCC)CC (centres unmarked) | Pylorus ligation ulcer | 28 |
| COC(=O)c1nc(C#CC(OC)OC)c(C#CC(OC)OC)nc1C(=O)OC | Pylorus ligation ulcer | 21 |
| CCCC#Cc1nc(C#N)c(C#N)nc1C#CCOC | Pylorus ligation ulcer | 5.2 |

----------
system: ulcer induced by 0.15N hydrochloric acid and 60% ethanol; experiment: Cell protection effect (hydrochloric acid/ethanol-induced ulcer); assay type: in vivo, Wistar male rats; conditions: Rattus norvegicus, 1 h; oral, 30 minutes before 0.15N HCl / 60% ethanol 5 ml/kg
# label = 1.0 if ED50 < 10 mg/kg else 0.0

| compound | category |
| --- | --- |
| COCC#Cc1nc(C#N)c(C#N)nc1C#CCOC | 1.0 |
| CCC(C#Cc1nc2ccccc2nc1C#CC(CC)OCCOC(C)C)OCCOC(C)C (stereo not shown) | 0.0 |
| CCOCCOC(C)(C)C#Cc1nc2ccccc2nc1C#CC(C)(C)OCCOCC | 0.0 |
| COCCOC(C)(C)C#Cc1nc2ccccc2nc1C#CC(C)(C)OCCOC | 0.0 |
| CCC(C#Cc1nc2ccccc2nc1C#CC(CC)OCCOC)OCCOC (stereo not shown) | 1.0 |
| CCOC(C)C#Cc1nc2ccccc2nc1C#CC(C)OCC (stereo not shown) | 1.0 |
| CCC(C#Cc1nc2ccccc2nc1C#CC(CC)OC)OC (stereo not shown) | 0.0 |
| COC(C)(C)C#Cc1nc2ccccc2nc1C#CC(C)(C)OC | 0.0 |
| CCOCCOC(C#Cc1nc2ccccc2nc1C#CC(CC)OCCOCC)CC (stereo not shown) | 1.0 |

----------
biological target: H^+,K^+ adenosine triphosphatase (Sus scrofa); construct: hog stomach was homogenized and subjected to ultracentrifugation to obtain a microsome fraction; from tissue; host or cells: hog stomach, microsome fraction (discontinuous Ficoll gradient); assay: H+,K+ adenosine triphosphatase inhibition (proton pump inhibition); assay type: biochemical, hog; conditions: H+,K+ ATPase fraction from hog stomach microsomes, ATP substrate, released inorganic phosphorus; read-out: Enzyme inhibition IC50 value (converted)
readout kind: IC50 (µM)

| molecule | readout kind | measured number |
| --- | --- | --- |
| COCCOCC#Cc1nc2ccc(OC)cc2nc1C#CCOCCOC | IC50 | 20.8 |
| CCC(C#Cc1nc2ccccc2nc1C#CC(CC)OCCC(=O)OC)OCCC(=O)OC (stereo not drawn) | IC50 | 87.9 |
| CCOC(C)C#Cc1nc2ccc(OC)cc2nc1C#CC(C)OCC (stereo not drawn) | IC50 | 25.3 |
| COCC#Cc1nc(C#N)c(C#N)nc1C#CCOC | IC50 | 1.88 |
| COC(=O)c1nc(C#CC(OC)OC)c(C#CC(OC)OC)nc1C(=O)OC | IC50 | 8.92 |
| CCOCCO[C@@H](C#Cc1nc2ccccc2nc1C#C[C@@H](CC)OCCOCC)CC | IC50 | 54.7 |
| COC(C)C#Cc1nc(C#N)c(C#N)nc1C#CC(C)OC (stereo not drawn) | IC50 | 1.7 |
| CCC(C#Cc1nc2ccccc2nc1C#CC(CC)OCCOC)OCCOC (stereo not drawn) | IC50 | 188 |
| CCCC#Cc1nc(C#N)c(C#N)nc1C#CCCOC | IC50 | 1.44 |

----------
This listing pairs molecules with measured log10 IC50.
molecular target: H^+,K^+ adenosine triphosphatase (Sus scrofa); construct: hog stomach was homogenized and subjected to ultracentrifugation to obtain a microsome fraction; from tissue; host or cells: hog stomach, microsome fraction (discontinuous Ficoll gradient); assay: H+,K+ adenosine triphosphatase inhibition (proton pump inhibition); type: biochemical, hog; settings: H+,K+ ATPase fraction from hog stomach microsomes, ATP substrate, released inorganic phosphorus; read-out: Enzyme inhibition IC50 value (converted)
readout kind: log10 IC50 (log10 of the value in µM)

| molecule | target system | readout kind | measured number |
| --- | --- | --- | --- |
| COC1(C#Cc2nc3ccccc3nc2C#CC2(OC)CCCC2)CCCC1 [Example 26] | H^+,K^+ adenosine triphosphatase (Sus scrofa) | log10 IC50 | 1.51 |
| CC[C@@H](C#Cc1nc2ccccc2nc1C#C[C@@H](CC)OCCOC)OCCOC [Example 21] | H^+,K^+ adenosine triphosphatase (Sus scrofa) | log10 IC50 | 2.01 |
| CCC(C#Cc1nc2ccccc2nc1C#CC(CC)OC)OC (stereo not drawn) [Example 11, 2,3-bis(3-methoxy-1-pentynyl)quinoxaline] | H^+,K^+ adenosine triphosphatase (Sus scrofa) | log10 IC50 | 1.48 |
| CCC(C#Cc1nc2ccc(C=O)cc2nc1C#CC(CC)OCCOC)OCCOC (stereo not drawn) [Example 138] | H^+,K^+ adenosine triphosphatase (Sus scrofa) | log10 IC50 | 1.03 |
| CCOCCOC(C#Cc1nc2ccccc2nc1C#CC(CC)OCCOCC)CC (stereo not drawn) [Example 117] | H^+,K^+ adenosine triphosphatase (Sus scrofa) | log10 IC50 | 2.09 |
| CCOC(C)C#Cc1nc2cccc(OC)c2nc1C#CC(C)OCC (stereo not drawn) [Example 140] | H^+,K^+ adenosine triphosphatase (Sus scrofa) | log10 IC50 | 1.53 |
| CCOC(C)C#Cc1nc2cc(OC)c(OC)cc2nc1C#CC(C)OCC (stereo not drawn) [Example 145] | H^+,K^+ adenosine triphosphatase (Sus scrofa) | log10 IC50 | 1.40 |
| CCOC(C)C#Cc1nc2ccccc2nc1Cl (stereo not drawn) [Example 29] | H^+,K^+ adenosine triphosphatase (Sus scrofa) | log10 IC50 | 2.33 |
| CCCOCCOC(C)(C)C#Cc1nc2ccccc2nc1C#CC(C)(C)OCCOCCC [Example 158] | H^+,K^+ adenosine triphosphatase (Sus scrofa) | log10 IC50 | 1.23 |
